Hey, just so you know, these numbers are from patent US10858339B2.

tested system: JAK2 (Homo sapiens, UniProt O60674)
Sequence (O60674 whole entry, species assumed): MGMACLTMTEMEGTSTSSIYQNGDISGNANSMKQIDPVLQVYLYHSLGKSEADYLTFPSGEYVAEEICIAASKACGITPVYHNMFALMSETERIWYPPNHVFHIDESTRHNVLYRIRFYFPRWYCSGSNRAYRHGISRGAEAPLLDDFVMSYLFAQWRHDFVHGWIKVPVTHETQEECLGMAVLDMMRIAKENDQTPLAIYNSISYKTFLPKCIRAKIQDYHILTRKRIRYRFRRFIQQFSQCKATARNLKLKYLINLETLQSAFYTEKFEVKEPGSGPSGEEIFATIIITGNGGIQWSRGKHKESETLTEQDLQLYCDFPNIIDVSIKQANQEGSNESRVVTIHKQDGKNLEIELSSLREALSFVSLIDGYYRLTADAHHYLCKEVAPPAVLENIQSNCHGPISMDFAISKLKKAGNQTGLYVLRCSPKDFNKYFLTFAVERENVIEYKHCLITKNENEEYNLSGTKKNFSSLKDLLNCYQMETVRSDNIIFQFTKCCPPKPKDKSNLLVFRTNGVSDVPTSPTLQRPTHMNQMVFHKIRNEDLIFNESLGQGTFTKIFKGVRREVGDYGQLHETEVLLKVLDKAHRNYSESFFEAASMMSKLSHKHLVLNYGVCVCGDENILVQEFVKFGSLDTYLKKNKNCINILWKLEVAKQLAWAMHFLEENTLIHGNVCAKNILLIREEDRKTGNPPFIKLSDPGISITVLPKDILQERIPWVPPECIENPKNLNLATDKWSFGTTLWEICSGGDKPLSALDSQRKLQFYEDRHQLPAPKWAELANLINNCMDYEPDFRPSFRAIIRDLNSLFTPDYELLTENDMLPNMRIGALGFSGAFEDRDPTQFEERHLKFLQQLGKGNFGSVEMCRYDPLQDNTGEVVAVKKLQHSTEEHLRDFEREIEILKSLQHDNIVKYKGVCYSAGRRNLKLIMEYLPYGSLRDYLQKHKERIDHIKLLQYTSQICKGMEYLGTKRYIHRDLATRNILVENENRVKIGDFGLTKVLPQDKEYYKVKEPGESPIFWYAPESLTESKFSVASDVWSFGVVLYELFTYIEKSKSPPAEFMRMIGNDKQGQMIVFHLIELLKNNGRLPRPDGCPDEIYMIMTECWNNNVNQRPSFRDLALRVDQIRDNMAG
experiment summary: JAK kinase assay, JAK2 enzyme;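 note: JAK2 kinase reaction run 75 min at room temperature, leftover ATP read by Kinase-Glo luminescence, 11-point dilution series in 2.5% DMSO, percent of inhibitor-free DMSO control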
Format: biochemical
measurement setup: Table 15; in brackets in the activity cell; read-out: JAK2 activity
pKi: −log10 of the molar value.
Measured pKi accompanies every entry in the list below.
attribute measured: pKi

> print(dat)
                                    molecule    test.value
 1  O=C(NCc1cccnc1)c1ccc([C@@H]2C[C@H]2C(=O)Nc2ccc3cnccc3c2)cc1 (relative stereo) [Example E8]          6.70
 2  CC(C)(C)OC(=O)N1CCCC1CNC(=O)c1ccc(C2CC2C(=O)Nc2ccc3cnccc3c2)cc1 (stereo not drawn) [Example 19.1]  5.46 to 5.82
 3  O=C(NCc1cccnc1)c1ccc([C@@H]2C[C@H]2C(=O)Nc2ccc3cnccc3c2F)cc1 [Example E56.1]  7.12 to 7.40
 4  O=C(NCc1cccnc1)c1cccc(C2CC2C(=O)Nc2ccc3cnccc3c2)c1 (stereo not drawn) [Example E173]          6.70
 5  O=C(NCc1cccnc1)c1ccc([C@@H]2C[C@H]2C(=O)Nc2ccc3cnccc3c2)cc1 [Example E56]  6.92 to 7.40
 6  O=C(OCc1ccccn1)c1ccc([C@@H]2C[C@H]2C(=O)Nc2ccc3cnccc3c2)cc1 (racemic) [Example E99]  6.22 to 6.60
 7  O=C(NCc1ccccn1)c1ccc(C2CC(=O)N(c3ccc4cnccc4c3)C2)cc1 (stereo not drawn) [Example E233]  4.87 to 5.24
 8  O=C(NCc1ccccn1)c1ccc(C2CC2C(=O)Nc2ccc3c(O)nccc3c2)cc1 (stereo not drawn) [Example E31]  6.24 to 6.43
 9  O=C(O)c1ccc([C@@H]2C[C@H]2C(=O)Nc2ccc3cnccc3c2)cc1 [Example E116]  6.15 to 6.40
10  O=C(NCC1CCCN1)c1ccc(C2CC2C(=O)Nc2ccc3cnccc3c2)cc1 (stereo not drawn) [Example E19.2]  6.46 to 6.52
11  CC(C)(C)OC(=O)N1CCC(CNC(=O)c2ccc(C3CC3C(=O)Nc3ccc4cnccc4c3)cc2)C1 (stereo not drawn) [Example E20.1]  5.70 to 6.15
12  O=C(Nc1ccc2cnccc2c1)c1ccc(C2CC2C(=O)Nc2ccc3cnccc3c2)cc1 (stereo not drawn) [Example E18]  5.92 to 6.00
